# TESTED_ON: P-glycoprotein 1 (P-gp, hMDR1) (Homo sapiens, UniProt P08183)
# Construct: gene ABCB1
# Sequence (P08183 whole entry): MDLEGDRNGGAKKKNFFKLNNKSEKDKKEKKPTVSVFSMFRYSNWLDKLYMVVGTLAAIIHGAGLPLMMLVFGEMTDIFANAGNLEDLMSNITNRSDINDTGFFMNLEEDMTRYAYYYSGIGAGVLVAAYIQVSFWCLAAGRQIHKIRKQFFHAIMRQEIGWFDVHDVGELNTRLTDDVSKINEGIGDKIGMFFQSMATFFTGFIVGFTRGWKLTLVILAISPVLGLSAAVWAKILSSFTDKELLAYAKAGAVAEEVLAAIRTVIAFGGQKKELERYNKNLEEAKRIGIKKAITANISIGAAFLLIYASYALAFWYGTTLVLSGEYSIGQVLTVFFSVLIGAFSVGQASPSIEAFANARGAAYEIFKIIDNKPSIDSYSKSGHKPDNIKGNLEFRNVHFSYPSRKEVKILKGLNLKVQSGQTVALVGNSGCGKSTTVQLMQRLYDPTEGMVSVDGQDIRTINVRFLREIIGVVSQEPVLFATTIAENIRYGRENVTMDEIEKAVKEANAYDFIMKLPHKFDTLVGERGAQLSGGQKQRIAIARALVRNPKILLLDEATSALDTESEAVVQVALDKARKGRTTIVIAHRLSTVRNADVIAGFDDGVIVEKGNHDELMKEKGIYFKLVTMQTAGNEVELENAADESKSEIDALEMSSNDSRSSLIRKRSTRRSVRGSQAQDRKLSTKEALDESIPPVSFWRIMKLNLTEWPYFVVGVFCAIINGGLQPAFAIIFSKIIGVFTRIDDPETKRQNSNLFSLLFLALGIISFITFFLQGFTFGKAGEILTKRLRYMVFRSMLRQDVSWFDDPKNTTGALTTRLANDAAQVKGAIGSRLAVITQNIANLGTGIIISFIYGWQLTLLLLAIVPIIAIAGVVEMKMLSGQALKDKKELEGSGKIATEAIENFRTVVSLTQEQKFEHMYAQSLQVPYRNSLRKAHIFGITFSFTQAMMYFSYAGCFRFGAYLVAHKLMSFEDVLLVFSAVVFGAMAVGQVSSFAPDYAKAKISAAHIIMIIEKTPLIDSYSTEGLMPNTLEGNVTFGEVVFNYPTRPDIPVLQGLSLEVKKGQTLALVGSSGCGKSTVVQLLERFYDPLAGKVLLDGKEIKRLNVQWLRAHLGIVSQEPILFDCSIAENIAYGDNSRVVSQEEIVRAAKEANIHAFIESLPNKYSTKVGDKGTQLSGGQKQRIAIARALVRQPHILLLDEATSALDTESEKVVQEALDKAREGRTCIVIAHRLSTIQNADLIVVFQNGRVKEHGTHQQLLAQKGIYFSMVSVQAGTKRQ
# EXPERIMENT_NOTES: vanadate-sensitive ATPase activation in P-gp membrane vesicles (PREDEASY kit); supported by Rh123 competition in MDR cells
pKd: −log10 of the molar value.

COMPOUND	pKd
CC(C)Cn1cnc2c(N)nc3ccccc3c21	5.12

* * *

# TESTED_ON: P-glycoprotein 1 (P-gp, hMDR1) (Homo sapiens)
# Construct: gene ABCB1
# EXPERIMENT_NOTES: biochemical

COMPOUND	Kd
CCOCc1nc2c(N)nc3ccccc3c2n1CC(C)(C)O	24.4 µM
